- studyTarget: T1, ROR1 Frizzled domain (human, UniProt Q01973 165-299)
- T1 construct: also called FZ domain; Acro Cat. No. RO1-H5222
- T1 sequence (Q01973 165-299): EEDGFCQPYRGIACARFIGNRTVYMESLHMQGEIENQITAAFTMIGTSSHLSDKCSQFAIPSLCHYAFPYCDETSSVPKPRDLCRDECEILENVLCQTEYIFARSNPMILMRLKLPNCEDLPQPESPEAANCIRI
- testMethodNotes: BLI, IgG1 on biosensor, soluble ROR1 domain
measuredParameter: binding result

binder	result
I2C-23 IgG1 (antibody, V domains shown, human IgG1) VH: EVQLVESGGGLVQPGGSLRLSCAASGFTFSSYEIHWVRQAPGKGLEWVASIYPFSGDTYYADSVKGRFTISADTSKNTAYLQMNSLRAEDTAVYYCARPGRAIYYAVMDYWGQGTLVTVSS VL: DIQMTQSPSSLSASVGDRVTITCRASQSVSSAVAWYQQKPGKAPKLLIYSASSLYSGVPSRFSGSRSGTDFTLTISSLQPEDFATYYCQQAGSHLFTFGQGTKVEIK	binds
I2A-19 IgG1 (antibody, V domains shown, human IgG1) VH: EVQLVESGGGLVQPGGSLRLSCAASGFTFSSYFIHWVRQAPGKGLEWVAWIYPSGSYTYYADSVKGRFTISADTSKNTAYLQMNSLRAEDTAVYYCAREMDRVGYSGMDYWGQGTLVTVSS VL: DIQMTQSPSSLSASVGDRVTITCRASQSVSSAVAWYQQKPGKAPKLLIYSASSLYSGVPSRFSGSRSGTDFTLTISSLQPEDFATYYCQQYRTPLGTFGQGTKVEIK	binds
I2A-34 IgG1 (antibody, V domains shown, human IgG1) VH: EVQLVESGGGLVQPGGSLRLSCAASGFTFSWYVIHWVRQAPGKGLEWVAYIAPYTGSTYYADSVKGRFTISADTSKNTAYLQMNSLRAEDTAVYYCARAFFGIRLGLDYWGQGTLVTVSS VL: DIQMTQSPSSLSASVGDRVTITCRASQSVSSAVAWYQQKPGKAPKLLIYSASSLYSGVPSRFSGSRSGTDFTLTISSLQPEDFATYYCQQAISSPYTFGQGTKVEIK	binds
